tested on: 889142-216-R-J1-PDC complex spheroid viability; assay: Anticancer human tumor 889142-216-R-J1-PDC patient-derived bladder carcinoma cell line growth inhibition [POLQ]; conditions: second compound 3.16 µM; first compound 10 µM; stronger effect = lower value
Could you please classify the records by viability, T/C using these ranges: low bin: < 50%; mid bin: ≥ 50% and < 80%; high bin: ≥ 80%

C=CC(=O)N1CCN(c2nc(=O)n(-c3c(C)ccnc3C(C)C)c3nc(-c4c(O)cccc4F)c(F)cc23)C(C)C1 (configuration not stated) + COC1C(OC(N)=O)C(O)C(Oc2ccc3c(O)c(NC(=O)c4ccc(O)c(CC=C(C)C)c4)c(=O)oc3c2C)OC1(C)C; high bin
C#Cc1c(F)ccc2cc(O)cc(-c3ncc4c(N5CC6CCC(C5)N6)nc(OCC56CCCN5CC(F)C6)nc4c3F)c12 (configuration not stated) + Cc1cccc(N(C)C(=O)C2C(O)CCN2c2nc(C)cc(C(F)(F)F)c2C#N)c1; low bin
CC1COCCN1c1cc(-c2ccnn2C)c2ccnc(-c3ccn[nH]3)c2n1 (configuration not stated) + COC1C(OC(N)=O)C(O)C(Oc2ccc3c(O)c(NC(=O)c4ccc(O)c(CC=C(C)C)c4)c(=O)oc3c2C)OC1(C)C; low bin
O=C(c1cc(Cc2n[nH]c(=O)c3ccccc23)ccc1F)N1CCN(C(=O)C2CC2)CC1 + COC1C(OC(N)=O)C(O)C(Oc2ccc3c(O)c(NC(=O)c4ccc(O)c(CC=C(C)C)c4)c(=O)oc3c2C)OC1(C)C; mid bin
CC1COCCN1c1cc(-c2ccnn2C)c2ccnc(-c3ccn[nH]3)c2n1 (configuration not stated) + Nc1ccc(C#CCN(C(=O)Cc2ncc(C(F)(F)F)cc2C(F)(F)F)c2ccc(F)cc2)nn1; low bin
COc1cc2cc(C(=O)CCC(=O)O)sc2cc1OC + COC1C(OC(N)=O)C(O)C(Oc2ccc3c(O)c(NC(=O)c4ccc(O)c(CC=C(C)C)c4)c(=O)oc3c2C)OC1(C)C; high bin
O=C(Nc1ccc(O)c(NS(=O)(=O)c2ccc(F)cc2)c1)c1ccc(-c2ccccc2)cc1 + Nc1ccc(C#CCN(C(=O)Cc2ncc(C(F)(F)F)cc2C(F)(F)F)c2ccc(F)cc2)nn1; mid bin
COc1cc(C2c3cc4c(cc3C(OC3OC5COC(C)OC5C(O)C3O)C3COC(=O)C23)OCO4)cc(OC)c1O (configuration not stated) + COC1C(OC(N)=O)C(O)C(Oc2ccc3c(O)c(NC(=O)c4ccc(O)c(CC=C(C)C)c4)c(=O)oc3c2C)OC1(C)C; mid bin
COc1cc2cc(C(=O)CCC(=O)O)sc2cc1OC + Nc1ccc(C#CCN(C(=O)Cc2ncc(C(F)(F)F)cc2C(F)(F)F)c2ccc(F)cc2)nn1; mid bin
C=CC(=O)N1CCN(c2nc(=O)n(-c3c(C)ccnc3C(C)C)c3nc(-c4c(O)cccc4F)c(F)cc23)C(C)C1 (configuration not stated) + Cc1cccc(N(C)C(=O)C2C(O)CCN2c2nc(C)cc(C(F)(F)F)c2C#N)c1; high bin
CCc1cc2c(N3CCc4c(cc(Cn5ccnc5)cc4-c4cn(C)nc4C(F)(F)F)C3=O)cc(C)nc2c(OC)n1 + Cc1cccc(N(C)C(=O)C2C(O)CCN2c2nc(C)cc(C(F)(F)F)c2C#N)c1; mid bin

###

system: 889142-216-R-J1-PDC complex spheroid viability; experiment: Anticancer human tumor 889142-216-R-J1-PDC cell line growth inhibition [POLQ]; conditions: second compound 10 µM; first compound 0.00316 µM; stronger effect = lower value;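 also: spheroids exposed to compounds for seven days; 100% = DMSO vehicle control viability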
Below, each of the compounds is paired with its reported viability, T/C value.
ATTRIBUTE_MEASURED: viability, T/C (%)

Cn1ncnc1[C@H]1c2n[nH]c(=O)c3cc(F)cc(c23)N[C@@H]1c1ccc(F)cc1 + Cc1cccc(N(C)C(=O)C2C(O)CCN2c2nc(C)cc(C(F)(F)F)c2C#N)c1; 69.1
CC[C@@]1(O)C(=O)OCc2c1cc1n(c2=O)Cc2cc3c(CN(C)C)c(O)ccc3nc2-1 + Nc1ccc(C#CCN(C(=O)Cc2ncc(C(F)(F)F)cc2C(F)(F)F)c2ccc(F)cc2)nn1; 86.2
COc1cccc(OCCCN)c1-c1cc(Nc2cnc(C#N)cn2)n[nH]1 + Nc1ccc(C#CCN(C(=O)Cc2ncc(C(F)(F)F)cc2C(F)(F)F)c2ccc(F)cc2)nn1; 85.8
C=CCn1c(=O)c2cnc(Nc3ccc(N4CCN(C)CC4)cc3)nc2n1-c1cccc(C(C)(C)O)n1 + Nc1ccc(C#CCN(C(=O)Cc2ncc(C(F)(F)F)cc2C(F)(F)F)c2ccc(F)cc2)nn1; 97.4
Cn1ncnc1[C@H]1c2n[nH]c(=O)c3cc(F)cc(c23)N[C@@H]1c1ccc(F)cc1 + Nc1ccc(C#CCN(C(=O)Cc2ncc(C(F)(F)F)cc2C(F)(F)F)c2ccc(F)cc2)nn1; 113
C=CCn1c(=O)c2cnc(Nc3ccc(N4CCN(C)CC4)cc3)nc2n1-c1cccc(C(C)(C)O)n1 + Cc1cccc(N(C)C(=O)C2C(O)CCN2c2nc(C)cc(C(F)(F)F)c2C#N)c1; 108
CCc1c2c(nc3ccc(O)cc13)-c1cc3c(c(=O)n1C2)COC(=O)[C@]3(O)CC + Cc1cccc(N(C)C(=O)C2C(O)CCN2c2nc(C)cc(C(F)(F)F)c2C#N)c1; 52
